Reported IC50 on Epidermal growth factor receptor (Homo sapiens) for assorted compounds, compiled from publications.

{"compound": "C=CC(=O)Nc1cc(Nc2ncc(Cl)c(Nc3ccc4ccccc4c3)n2)c(OC)cc1N1CCC(N(C)C)C1 (stereo not shown)", "IC50": "16.8 nM"}
{"compound": "COc1ccccc1C(=O)NCc1ccc(-c2nn(C3CCC(C)(O)CC3)c3ncnc(N)c23)cc1 (single isomer, unassigned)", "IC50": "100 to 1000 nM"}
{"compound": "CN(C/C=C/C(=O)N1CC[C@@H](n2nc(-c3ccc(C(=O)Nc4cc(C#N)ccn4)cc3)c3c(N)ncnc32)C1)C1CC1", "IC50": "1000 to 10000 nM"}
{"compound": "CN(C)C/C=C/C(=O)N1CC[C@@H](Nc2n[nH]c3nccc(O[C@H]4CCN(c5ccccc5)C4)c23)C1", "IC50": "> 10000 nM"}
{"compound": "C=CC(=O)N1CCc2ccc(-c3c(-c4ccc(OCCN(C)C)cc4)[nH]c4nccc(Cl)c34)cc21", "IC50": "≤ 100 nM"}
{"compound": "COc1cc(/C=C/c2cc(-c3ccccc3)[nH]n2)ccc1O", "IC50": "> 5000 nM"}
{"compound": "C#Cc1cccc(Nc2ncnc3cc(OC)c(OCCC(=O)NO)cc23)c1", "IC50": "< 100 nM"}

###

pIC50: −log10 of the molar value.
Collected pIC50 for Epidermal growth factor receptor (Homo sapiens, UniProt P00533) across several studies; compounds listed below.

{"compound": "C=CC(=O)Nc1cccc(Nc2ncc(F)c(Nc3cccc(OCCN4CCOCC4)c3)n2)c1", "pIC50": "6.00 to 7.00"}
{"compound": "C=CC(=O)Nc1cc(-c2c(-c3ccc(N4CCN(C)CC4)cc3)[nH]c3ncc(C(=O)NCc4cccc(NC(C)=O)c4)cc23)ccc1C", "pIC50": "≥ 7.00"}
{"compound": "CCNc1nc(-c2cc(OC)cc(OC)c2)c(-c2ccnc(Nc3ccc(OC4CCN(CCS(C)(=O)=O)CC4)c(C)c3)n2)o1", "pIC50": "< 6.00"}
{"compound": "COc1cc(-n2c(=O)n(-c3cccc(N(C)C(=O)/C=C/CN(C)C4CC4)c3)c3ncnc(N)c32)ccc1Oc1ccccc1", "pIC50": "5.00 to 6.00"}
{"compound": "COc1cc(C)cc(-c2nc(C(C)C)sc2-c2ccnc(Nc3ccc(N4CCN(C(C)=O)CC4)nc3)n2)c1", "pIC50": "< 6.00"}
{"compound": "C[C@@H](Nc1ncnc2[nH]c(-c3ccc(CNCC(=O)NO)cc3)cc12)c1ccccc1", "pIC50": "5.00 to 6.00"}
{"compound": "C=CC(=O)Nc1cccc(N2C(=O)N(C)Cc3cnc(Nc4ccc(N5CCN(C)CC5)cc4)nc32)c1", "pIC50": "≥ 8.00"}
{"compound": "Cc1nn(C)c2c1/C=C/c1n[nH]c3ccc(cc13)-c1cnn(C)c1O[C@@H](C)CN(C1COC1)C2", "pIC50": 7.07}
{"compound": "CN1CCN(c2ccc3[nH]/c(=N\\C(=O)c4ccnc(Oc5cccc(O)c5C=O)c4)n(CC(C)(C)O)c3c2)CC1", "pIC50": 6.56}
{"compound": "C=CC(=O)Nc1cc(Nc2nccc(-c3cn(C45CC(C#N)(C4)C5)c4ccccc34)n2)c(OC)cc1N(C)CCN(C)C", "pIC50": "≥ 8.00"}
{"compound": "COc1cc(N2[C@@H]3CC[C@H]2CN(C)C3)ccc1Nc1nc(Nc2cccc3c2N(S(C)(=O)=O)CC3)c2cc[nH]c2n1", "pIC50": 6.84}
{"compound": "Cn1ncc2c1OCCN1CC[C@@H](Oc3ccccc3/C=C/c3n[nH]c4ccc-2cc34)C1=O", "pIC50": 7.01}
{"compound": "C=CC(=O)Nc1cccc(Nc2nc(Nc3ccc(N4CCOCC4)cc3OC)ncc2Cl)c1", "pIC50": "7.00 to 7.52"}
{"compound": "C=CC(=O)N1CCC[C@@H](Nc2n[nH]c3nccc(Oc4ccc(C(=O)Nc5ncc(C)s5)cc4)c23)C1", "pIC50": "6.00 to 7.00"}
{"compound": "CCc1nn(C)c2c1/C=C/c1n[nH]c3ccc(cc13)-c1cnn(C)c1CN(C)CCO2", "pIC50": 6.82}
{"compound": "CCN1CCC(Nc2ccc3c(c2)/C(=C(\\c2ccc(Cl)cc2)c2nc4ccccc4[nH]2)C(=O)N3)CC1", "pIC50": "6.30 to 7.30"}
{"compound": "CCc1cc(Nc2ncc(Br)c(Nc3ccc4nc(C5CC5)ccc4c3P(C)(C)=O)n2)c(OC)cc1N1CCN(C)CC1", "pIC50": 7.34}
{"compound": "C=CC(=O)Nc1cccc(Nc2nc(Nc3ccc(NC(C)C)cc3OC)ncc2C(F)(F)F)c1", "pIC50": "7.52 to 8.00"}
{"compound": "CN(C(=O)/C=C/c1ccccn1)c1cccc(-n2c(=O)n(-c3ccc(Oc4ccccc4)cc3)c3c(N)ncnc32)c1", "pIC50": "5.00 to 6.00"}
{"compound": "CCc1nccn1Cc1ccc(Nc2nc3ncnc(Nc4cccc(Cl)c4)c3s2)cc1", "pIC50": 7.89}
{"compound": "COc1ccc2[nH]c(/C(=C3\\C(=O)Nc4ccc(NC5CCN(Cc6ccccc6)C5)cc43)c3ccccc3)nc2c1 (centres unmarked)", "pIC50": "5.30 to 6.30"}
{"compound": "CC(C)Oc1nn(CCO)c2c1/C=C/c1n[nH]c3cc(F)c(cc13)-c1cnn(C)c1O[C@H](C)[C@H]1CCCN1C2 (single isomer, unassigned)", "pIC50": 8.84}
{"compound": "Nc1nc(-c2cccc(NS(=O)(=O)c3c(F)cccc3F)c2)c(-c2ccnc(Nc3ccc(N4CCOCC4)nc3)n2)s1", "pIC50": "6.00 to 7.00"}
{"compound": "CC(C)Oc1nn(CCO)c2c1/C=C/c1n[nH]c3ccc(cc13)-c1cnn(C)c1O[C@@H](C)[C@H]1CCCN1C2", "pIC50": 8.32}
{"compound": "C=CC(=O)Nc1cc(-c2c(-c3cccc(C(=O)NCCCN(C)Cc4ccccc4)c3)[nH]c3nccc(Cl)c23)ccc1C", "pIC50": "≥ 7.00"}
{"compound": "CON(C)C/C=C/C(=O)N1CCc2c(sc3ncnc(Nc4ccc(Oc5ccc(C)nc5)c(C)c4)c23)C1", "pIC50": "< 5.00"}
{"compound": "CCc1nn(CCO)c2c1/C=C/c1n[nH]c3ccc(cc13)-c1cnn(C)c1OCCCO2", "pIC50": 6.54}
{"compound": "COc1ccccc1C(=O)NCc1ccc(-c2nn(C3CCCC3)c3ncnc(N)c23)cc1C", "pIC50": "6.00 to 7.00"}
{"compound": "Cc1cnc(NC(=O)c2ccc(Oc3ccnc4[nH]nc(N[C@@H]5CCCN(C(=O)/C=C/CN(C)C)C5)c34)cc2)s1", "pIC50": "5.00 to 6.00"}
